Target: Nucleoli Translocation, AR (gene 367)
Experiment: UPITT_HCI_U2OS_AR_TIF2_Nucleoli_Agonist: University of Pittsburgh U2OS Androgen Receptor-Transcriptional Intermediary Factor 2 (AR-TIF2) Agonism High Content Imaging Assay for Nucleoli Translocation (AID 2283998)
Records with an inconclusive call do not appear. The source made the active and inactive calls. Rule for the calls: active = hit-call score of the fitted dose curve at least 0.9, where 1 is the maximum; inconclusive = response in the unintended direction; inactive = score below 0.9.
Outcomes: Y (active), N (inactive)

>  <compound>
CCCCCCc1ccc(O)cc1O

>  <answer label>
Y

$$$$
>  <compound>
Cc1ccc(N)cc1O

>  <answer label>
N

$$$$
>  <compound>
Cc1ccc(O)cc1

>  <answer label>
N

$$$$
>  <compound>
Oc1ccc2c(c1)-c1ccccc1C2

>  <answer label>
Y

$$$$
>  <compound>
CCNc1ccccc1

>  <answer label>
N

$$$$
>  <compound>
C1N2CN3CN1CN(C2)C3

>  <answer label>
N

$$$$
>  <compound>
CCCCC(CC)COC(=O)c1ccc(C(=O)OCC(CC)CCCC)cc1 (stereo not drawn)

>  <answer label>
N

$$$$
>  <compound>
Fc1ccccc1[C@@H](F)COC1CCC(Nc2ncnc3[nH]ncc23)CC1 (stereo partly drawn)

>  <answer label>
N

$$$$
